test: MRT (0 to t) in CD1(ICR) mouse at 1 mg/kg, ip by LC-MS/MS analysis; type: ADME, organism-based; conditions: in vivo
parameter measured: MRT last (min)
The response must be a number in min with no trailing unit.

The value of MRT last measured for the compound `O=C(CCCCCn1cc(Nc2ncc(Cl)c(Nc3ccc(Cl)cc3)n2)cn1)NO` turned out to be 21.6

----------
target: Histone deacetylase; assay: Inhibition of HDAC in human HeLa nuclear extract using Boc-Lys(acetyl)-AMC as substrate preincubated for 5 mins followed by substrate addition and measured after 30 mins by fluorescence assay; type: cell-based
parameter measured: IC50 (nM)
The response must be a number in nM with no trailing unit.

The value of IC50 measured for the compound `CNc1nc(Nc2cnn(CCCCCC(=O)NO)c2)ncc1Cl` turned out to be 104

The value of IC50 measured for the compound `O=C(CCCCCCn1cc(Nc2ncc(Cl)c(N3CCOCC3)n2)cn1)NO` turned out to be 37

The value of IC50 measured for the compound `O=C(CCCCCCn1cc(Nc2ncc(Cl)c(N3CCCCC3)n2)cn1)NO` turned out to be 40

The value of IC50 measured for the compound `O=C(CCCCCCn1cc(Nc2ncc(Cl)c(Nc3ccccc3)n2)cn1)NO` turned out to be 19

The value of IC50 measured for the compound `O=C(NO)c1ccc(Cn2cc(Nc3ncc(Cl)c(Nc4ccc(F)cc4)n3)cn2)cc1` turned out to be 62

The value of IC50 measured for the compound `O=C(CCCCCn1cc(Nc2ncc(Cl)c(Nc3ccc(F)cc3)n2)cn1)NO` turned out to be 26

The value of IC50 measured for the compound `CCCNc1nc(Nc2cnn(CCCCCCC(=O)NO)c2)ncc1Cl` turned out to be 26

The value of IC50 measured for the compound `O=C(CCCCCn1cc(Nc2ncc(Cl)c(Nc3ccccc3Cl)n2)cn1)NO` turned out to be 18

The value of IC50 measured for the compound `O=C(CCCCCCn1cc(Nc2ncc(F)c(Nc3ccc(F)cc3)n2)cn1)NO` turned out to be 3
